Values compiled from patent US20090297535A1.

# Target under test: T1, recombinant human IL6 (human, UniProt P05231 30-212)
# T1 construct: Amine-coupled to a CM5 chip in the Biacore assay; used biotinylated in the Alphascreen assays; also called interleukin-6; biotinylated human IL6
# Protocol notes: SPR, Biacore 3000; IL6 amine-coupled on CM5 chip, periplasmic extract injected
# Method: Off-rate analysis of Nanobodies binding to IL6 was done by surface plasmon resonance on a Biacore 3000 instrument. Recombinant human IL6 was covalently bound to a CM5 sensor chip via amine coupling at a density of ˜500 RU. Remaining reactive groups were inactivated. Periplasmic extracts prepared from E. coli cells expressing anti-IL6 Nanobodies were diluted 10 or 15-fold and injected for 4 min to allow for binding to IL6 immobilized on the chip. […]
The threshold is inclusive: koff of exactly 0.0002 s⁻¹ counts as fulfilled; values below receive not fulfilled.

PMP13A1 (VHH, Monovalent Nanobody) VHH: AVQLVDSGGGLVQAGGSLRLSCAASGRTFSPYTMGWFRQPPGKVREFVGRINWSGIRNYADSVKGRFTISRDNNNNTVYLQMNRLKPEDTAVYYCAAASQSGSGYDSWGQGTQVTVSS | fulfilled
PMP17B5 (VHH, Monovalent Nanobody) VHH: QVQLVESGGGLVQAGGSLRLSCAASGGTFSAFPMGWFRQAPGKERKFVAGISQSGGSTHYSDSVKGRFTISRENAKNTIYLQMNSLKPEDTAVYYCAARGRTLALRNYAYTTEVGYDDWGQGTQVTVSS | not fulfilled
PMP6B12 (VHH, Monovalent Nanobody) VHH: AVQLVESGGGLVQPGGSLRLSCAASGFTLAYYAIGWFRQAPGKEREGVSCISSSVGTTYYSDSVKGRFTISRDNAKNTVYLQMNSLKPEDTAVYYCVRSSWFDCGVQGRDLGNEYDYRGQGTQVTVSS | fulfilled
PMP7G9 (VHH, Monovalent Nanobody) VHH: QVQLVESGGGLVQPGGSLRLSCAASGFSLDYYGVGWFRQAPGKEREGVSCISSSDGDTYYADSVKGRFTISRDNAKNTVYLQMNSLKPEDTAVYYCATDLSDYGVCSRWPSPYDYWGQGTQVTVSS | fulfilled
PMP20D2 (VHH, Monovalent Nanobody) VHH: AVQLVESGGGLVQPGGSLRLSCAASGSISRFNIMGWYRQAPGKQRELVADITNRGTTNYADSVKGRFTISRDNTKNTVYLQMNSLKPDDTAVYYCHTYYPTTGFDDWGQGTQVTVSS | fulfilled
PMP22E3 (VHH, Monovalent Nanobody) VHH: QVQLVESGGGLVQPGGSLRLSCAASGFTLDDSAIGWFRQAPGKEREGVSCISSSDGDTYYDDSVKGRFTISRDNVKNMVYLQMNSLKPEDTAVYFCAIDLSDYGVCSKWPSPYDYWGQGTQVTVSS | fulfilled
PMP9F9 (VHH, Monovalent Nanobody) VHH: AVQLVESGGGLVQAGGSLRLSCAASGGTFSSFPMGWFRQAPGEKREFVAGISQSGGSTHYSDSVKGRFTISRENARNTVYLQMNSLKPEDTAVYYCAARGRTLALRNYAYTTEVGYDDWGQGTQVTVSS | not fulfilled
PMP6G10 (VHH, Monovalent Nanobody) VHH: QVQLVESGGGLAQAGGSLRLSCVVSGRTFSPYTIGWFSQRPGKEREWVATIIGSDRSTDLDGDTYYADSVRGRFTISRNDAKNTVSLQMNSLKPEDSAVYYCALTAKGYVFTDNEYDYWGQGTQVTVSS | fulfilled
